Assay: LogP (Table 1)
Assay type: physicochemical
readout_type: LogP

Some compounds with recorded LogP:
Cn1cc(C(=S)N(Cc2c(Cl)cc(Cl)cc2Cl)C2CC2)c(Cl)n1 [Compound 52]: 4.49
Cc1nn(C)c(F)c1C(=S)N(Cc1c(Cl)cc(Cl)cc1Cl)C1CC1 [Compound 6]: 4.42
Cc1nn(C)c(F)c1C(=S)N(Cc1c(Br)cc(Br)cc1Br)C1CC1 [Compound 13]: 4.86
CC(c1cc(Cl)cc(Cl)c1)N(C(=S)c1cn(C)nc1Cl)C1CC1 (racemic) [Compound 49]: 4.49
Cn1nc(C(=S)N(Cc2c(Cl)cccc2C(F)(F)F)C2CC2)c(C(F)(F)F)n1 [Compound 46]: 4.67

Report LogP for each item below.
1. Cc1nn(C)c(F)c1C(=S)N(Cc1cccc(C(F)(F)F)c1Cl)C1CC1 [Compound 3]
2. Cn1cc(C(=S)N(Cc2c(Cl)cccc2Cl)C2CC2)c(I)n1 [Compound 55]
3. CCc1cccc(CC)c1CN(C(=S)c1c(C)nn(C)c1F)C1CC1 [Compound 4]
4. Cc1nn(C)c(F)c1C(=S)N(Cc1cc(Cl)ccc1Br)C1CC1 [Compound 22]

Response:
1: 3.92; 2: 3.71; 3: 4.39; 4: 3.99

Source: patent US8410157B2
